Measured On: T1, P26 (human, UniProt P02771 381-609, limits assumed)
T1 construct: also called AFP p26
T1 sequence: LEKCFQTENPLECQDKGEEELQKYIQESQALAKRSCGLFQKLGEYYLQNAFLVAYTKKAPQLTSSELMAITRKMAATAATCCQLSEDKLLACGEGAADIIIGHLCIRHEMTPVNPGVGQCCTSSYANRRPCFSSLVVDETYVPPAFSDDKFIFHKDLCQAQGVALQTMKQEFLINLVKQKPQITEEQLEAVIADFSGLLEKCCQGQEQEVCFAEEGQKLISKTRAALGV
Procedure Details: ELISA, format not described
Design: unit not given here
Lab note: anything with ELISA_avg at or over 20 counts as rule met; the rest go in rule not met.

| Binder | Label Value |
| --- | --- |
| D domain SEQ ID NO: 950 (designed binder) MGSWILFKEDLAFIKWQLEALGGSEAELAWFETTIANFESDLQKYKGKGNPEVEALRKEAAAIRDELQAYRHN | rule met |
| D domain SEQ ID NO: 931 (designed binder) MGSWFYFKYELAWIKHWLEALGGSEAELASFETHIAFFEHQLQYYKGKGNPEVEALRKEAAAIRDELQAYRHN | rule not met |
| D domain SEQ ID NO: 963 (designed binder) MGSWLAFKEDLAHIKSILEALGGSEAELAEFEHDIAWFEYMLQYYKGKGNPEVEALRKEAAAIRDELQAYRHN | rule not met |

Now consider a different binder.
Prompt: Please indicate if the recorded ELISA_avg for D domain SEQ ID NO: 856 (designed binder) MGSWHEFMERLIAIDGRLWALGGSEAELAAFEKEIAAFESELQAYKGKGNPEVEYLRFVAAFIRDVLQAYRHN meets or exceeds 20.
Completion: rule not met
